Tested on: 8305C (Thyroid Gland Carcinoma)
Assay: combination Emax (second highest fraction inhibited in the dose matrix, 72 h); higher = more inhibition; extreme values may be limits of the assay
Listing of entries alongside the reported combination Emax.
result_type: combination Emax

>>> experimental_result("COc1cccc(OCCCN)c1-c1cc(Nc2cnc(C#N)cn2)n[nH]1 [Prexasertib] + C=CCn1c(=O)c2cnc(Nc3ccc(N4CCN(C)CC4)cc3)nc2n1-c1cccc(C(C)(C)O)n1 [AZD1775] (first compound max 1 µM, partner max 1 µM)")
0.718
>>> experimental_result("COc1nnc2ccc(N3CCC(c4ccc(OCCN5CCN(C)C(=O)[C@H]5C)cc4)CC3)nn12 [AZD5153] + CCN(CCO)CCCOc1ccc2c(Nc3cc(CC(=O)Nc4cccc(F)c4)[nH]n3)ncnc2c1 [AZD2811] (first compound max 1 µM, 7x7, partner max 1 µM)")
0.594

----------
System: RKO (Colorectal Carcinoma)
Assay: Bliss excess, mean over the matrix (fraction); higher = more synergy
Listing of entries alongside the reported Bliss excess.
result_type: Bliss excess

>>> experimental_result("COc1cccc2c1C(=O)c1c(O)c3c(c(O)c1C2=O)C[C@@](O)(C(=O)CO)C[C@@H]3O[C@H]1C[C@H](N)[C@H](O)[C@H](C)O1 [Doxorubicin] + Cc1cc2ncnn2cc1Nc1ncc2c(n1)n(C1CCOCC1)c(=O)n2C [AZD7648] (first compound max 1 µM, 7x7, partner max 10 µM)")
0.0473
>>> experimental_result("CC1(C)CCC(CN2CCN(c3ccc(C(=O)NS(=O)(=O)c4ccc(NCC5CCOCC5)c([N+](=O)[O-])c4)c(Oc4cnc5[nH]ccc5c4)c3)CC2)=C(c2ccc(Cl)cc2)C1 [Venetoclax] + C=CCn1c(=O)c2cnc(Nc3ccc(N4CCN(C)CC4)cc3)nc2n1-c1cccc(C(C)(C)O)n1 [AZD1775] (first compound max 1 µM, partner max 1 µM)")
0.0487
>>> experimental_result("Cc1nc(Nc2ncc(C(=O)Nc3c(C)cccc3Cl)s2)cc(N2CCN(CCO)CC2)n1 [Dasatinib] + CC(=O)Nc1cccc(-n2c(=O)n(C3CC3)c(=O)c3c(Nc4ccc(I)cc4F)n(C)c(=O)c(C)c32)c1 [Trametinib] (first compound max 2 µM, 7x7, partner max 1 µM)")
0.119
>>> experimental_result("CC1(C)CCC(CN2CCN(c3ccc(C(=O)NS(=O)(=O)c4ccc(NCC5CCOCC5)c([N+](=O)[O-])c4)c(Oc4cnc5[nH]ccc5c4)c3)CC2)=C(c2ccc(Cl)cc2)C1 [Venetoclax] + CCN(CCO)CCCOc1ccc2c(Nc3cc(CC(=O)Nc4cccc(F)c4)[nH]n3)ncnc2c1 [AZD2811] (first compound max 1 µM, 7x7, partner max 1 µM)")
0.0096
>>> experimental_result("O=C(c1cc(Cc2n[nH]c(=O)c3ccccc23)ccc1F)N1CCN(C(=O)C2CC2)CC1 [Olaparib] + Cc1c2c(nn1C)CSCc1cc(n(C)n1)CSc1cc(c3ccccc3c1)OCCCc1c(C(=O)O)n(C)c3c-2c(Cl)ccc13 [AZD5991] (first compound max 10 µM, 7x7, partner max 1 µM)")
-0.0205
>>> experimental_result("CS(=O)(=O)CCNCc1ccc(-c2ccc3ncnc(Nc4ccc(OCc5cccc(F)c5)c(Cl)c4)c3c2)o1 [Lapatinib] + C[C@@H](Oc1cc(-c2cnn(C3CCNCC3)c2)cnc1N)c1c(Cl)ccc(F)c1Cl [Crizotinib] (first compound max 10 µM, 7x7, partner max 10 µM)")
-0.0977
>>> experimental_result("CCN(CCO)CCCOc1ccc2c(Nc3cc(CC(=O)Nc4cccc(F)c4)[nH]n3)ncnc2c1 [AZD2811] + C=CCn1c(=O)c2cnc(Nc3ccc(N4CCN(C)CC4)cc3)nc2n1-c1cccc(C(C)(C)O)n1 [AZD1775] (first compound max 1 µM, partner max 1 µM)")
-0.0625
>>> experimental_result("C=CCn1c(=O)c2cnc(Nc3ccc(N4CCN(C)CC4)cc3)nc2n1-c1cccc(C(C)(C)O)n1 [AZD1775] + CCc1c2c(nc3ccc(O)cc13)-c1cc3c(c(=O)n1C2)COC(=O)[C@]3(O)CC [SN-38] (first compound max 1 µM, partner max 0.3 µM)")
-0.0377
>>> experimental_result("O=C(c1cc(Cc2n[nH]c(=O)c3ccccc23)ccc1F)N1CCN(C(=O)C2CC2)CC1 [Olaparib] + CN(CC[C@H](CSC1=CC=CC=C1)NC2=C(C=C(C=C2)S(=O)(=O)NC(=O)C3=CC=C(C=C3)N4CCC(CC4)[C@H](C5=CC=CC=C5C6=CC=C(C=C6)Cl)O)S(=O)(=O)C(F)(F)F)CCO [AZD4320] (first compound max 10 µM, 7x7, partner max 1 µM)")
-0.0252
>>> experimental_result("CCc1c2c(nc3ccc(O)cc13)-c1cc3c(c(=O)n1C2)COC(=O)[C@]3(O)CC [SN-38] + O=C(c1cc(Cc2n[nH]c(=O)c3ccccc23)ccc1F)N1CCN(C(=O)C2CC2)CC1 [Olaparib] (first compound max 0.3 µM, 7x7, partner max 10 µM)")
0.0223
>>> experimental_result("CN(C)CCCOc1ccc(-c2ccc3ncc4c(c3c2)n(C2CCOCC2)c(=O)n4C)cn1 [AZD0156] + CCN(CCO)CCCOc1ccc2c(Nc3cc(CC(=O)Nc4cccc(F)c4)[nH]n3)ncnc2c1 [AZD2811] (first compound max 1 µM, 7x7, partner max 1 µM)")
0.014
>>> experimental_result("C=CCn1c(=O)c2cnc(Nc3ccc(N4CCN(C)CC4)cc3)nc2n1-c1cccc(C(C)(C)O)n1 [AZD1775] + O=C(c1cc(Cc2n[nH]c(=O)c3ccccc23)ccc1F)N1CCN(C(=O)C2CC2)CC1 [Olaparib] (first compound max 1 µM, partner max 10 µM)")
-0.0119
>>> experimental_result("CCc1c2c(nc3ccc(O)cc13)-c1cc3c(c(=O)n1C2)COC(=O)[C@]3(O)CC [SN-38] + CN(C)CCCOc1ccc(-c2ccc3ncc4c(c3c2)n(C2CCOCC2)c(=O)n4C)cn1 [AZD0156] (first compound max 0.3 µM, 7x7, partner max 1 µM)")
0.0263

----------
Test system: SU-DHL-6 (B-Cell Non-Hodgkin's Lymphoma)
Assay: Bliss excess, mean over the matrix (fraction); higher = more synergy
result_type: Bliss excess

>>> experimental_result("CN(CCO)CC[C@H](CSc1ccccc1)Nc1ccc(S(=O)(=O)NC(=O)c2ccc(N3CCC([C@@H](O)c4ccccc4-c4ccc(Cl)cc4)CC3)cc2)cc1S(=O)(=O)C(F)(F)F [AZD4320] + C[C@@H](Nc1cc(F)cc(F)c1)c1cc(C(=O)N(C)C)cc2c(=O)cc(N3CCOCC3)oc12 [AZD8186] (first compound max 1 µM, 7x7, partner max 3 µM)")
0.0068
>>> experimental_result("O=C(c1cc(Cc2n[nH]c(=O)c3ccccc23)ccc1F)N1CCN(C(=O)C2CC2)CC1 [Olaparib] + CC1(C)CCC(CN2CCN(c3ccc(C(=O)NS(=O)(=O)c4ccc(NCC5CCOCC5)c([N+](=O)[O-])c4)c(Oc4cnc5[nH]ccc5c4)c3)CC2)=C(c2ccc(Cl)cc2)C1 [Venetoclax] (first compound max 10 µM, 7x7, partner max 1 µM)")
0.104
>>> experimental_result("Cc1cc2ncnn2cc1Nc1ncc2c(n1)n(C1CCOCC1)c(=O)n2C [AZD7648] + CCN(CCO)CCCOc1ccc2c(Nc3cc(CC(=O)Nc4cccc(F)c4)[nH]n3)ncnc2c1 [AZD2811] (first compound max 10 µM, 7x7, partner max 1 µM)")
0.0052
>>> experimental_result("COc1nnc2ccc(N3CCC(c4ccc(OCCN5CCN(C)C(=O)[C@H]5C)cc4)CC3)nn12 [AZD5153] + C=CCn1c(=O)c2cnc(Nc3ccc(N4CCN(C)CC4)cc3)nc2n1-c1cccc(C(C)(C)O)n1 [AZD1775] (first compound max 1 µM, partner max 1 µM)")
-0.0656
>>> experimental_result("COc1nnc2ccc(N3CCC(c4ccc(OCCN5CCN(C)C(=O)[C@H]5C)cc4)CC3)nn12 [AZD5153] + C[C@@H]1COCCN1C2=NC(=NC(=C2)C3(CC3)[S@](=N)(=O)C)C4=C5C=CNC5=NC=C4 [AZD6738] (first compound max 1 µM, 7x7, partner max 10 µM)")
-0.0505
>>> experimental_result("N#Cc1cnc(Nc2cc(NC[C@H]3CNCCO3)c(C(F)(F)F)cn2)cn1 [SRA737] + C=CCn1c(=O)c2cnc(Nc3ccc(N4CCN(C)CC4)cc3)nc2n1-c1cccc(C(C)(C)O)n1 [AZD1775] (first compound max 10 µM, partner max 1 µM)")
0.131
>>> experimental_result("CC(=O)c1c(C)c2cnc(Nc3ccc(N4CCNCC4)cn3)nc2n(C2CCCC2)c1=O [Palbociclib] + Cn1cnc2c(F)c(Nc3ccc(Br)cc3Cl)c(C(=O)NOCCO)cc21 [Selumetinib] (first compound max 10 µM, 7x7, partner max 10 µM)")
0.167
>>> experimental_result("Cc1c2c(nn1C)CSCc1cc(n(C)n1)CSc1cc(c3ccccc3c1)OCCCc1c(C(=O)O)n(C)c3c-2c(Cl)ccc13 [AZD5991] + CN(C)CCCOc1ccc(-c2ccc3ncc4c(c3c2)n(C2CCOCC2)c(=O)n4C)cn1 [AZD0156] (first compound max 1 µM, 7x7, partner max 1 µM)")
-0.0154

Source of measurements: the supplement of paper PMC11061612
